Biological target: SIRT3 (Homo sapiens)
Sequence (Q9NTG7 whole entry): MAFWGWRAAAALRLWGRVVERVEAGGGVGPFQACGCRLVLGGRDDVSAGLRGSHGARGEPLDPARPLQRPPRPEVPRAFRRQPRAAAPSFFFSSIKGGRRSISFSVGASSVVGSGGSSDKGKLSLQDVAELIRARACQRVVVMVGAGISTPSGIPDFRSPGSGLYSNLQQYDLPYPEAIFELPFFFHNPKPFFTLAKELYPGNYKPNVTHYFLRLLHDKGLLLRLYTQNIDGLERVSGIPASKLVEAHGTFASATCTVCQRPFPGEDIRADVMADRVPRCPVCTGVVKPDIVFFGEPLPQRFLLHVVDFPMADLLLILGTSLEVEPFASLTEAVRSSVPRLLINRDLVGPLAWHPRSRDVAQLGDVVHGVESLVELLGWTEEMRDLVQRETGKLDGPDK
Assay: In vitro SIRT3 activity assay
Assay type: biochemical
Conditions: mean ± SD of three independent experiments
pIC50: −log10 of the molar value.
assay.readout: pIC50

compound_structure_string=C=C(C)[C@@H]1CC[C@@H](C)[C@@]2(O)[C@@H]1C=C(C)[C@@H](OC(C)=O)[C@@H]2OC(=O)[C@H](CC(=O)c1ccccc1NC)NC=O endpoint_result="< 4.00"

* * *

Test system: primary human CD34+ stem/progenitor cells
Experiment: Growth and viability of primary CD34+ stem/progenitor cells
Type: cell-based
Details: Homo sapiens, 72 h; read-out: IC50 growth inhibition of CD34+ cells
assay.readout: IC50

compound_structure_string=C=C(C)[C@@H]1CC[C@@H](C)[C@@]2(O)[C@@H]1C=C(C)[C@@H](OC(C)=O)[C@@H]2OC(=O)[C@H](CC(=O)c1ccccc1NC)NC=O study_target="primary human CD34+ stem/progenitor cells" assay_readout=IC50 endpoint_result="> 200 µM"
